Property: melting point; scope: individual molecules

>>> measured_result("COCCON1C(=O)C(c2c(C)cc(Cl)cc2C)=C(O)C12CCN(OC)CC2")
"161 to 164 °C"
>>> measured_result("CCOC(=O)OC1=C(c2c(C)cc(Cl)cc2C)C(=O)N(OC)C12CCN(OC)CC2")
"122 to 125 °C"

## Input For "CON1CCC2(CC1)C(O)=C(c1c(C)cc(Cl)cc1C)C(=O)N2OC" , what is its reported melting point?
## Output 88 to 92 °C

## Input For CCN1C(=O)C(c2c(C)cc(C)cc2C)=C(O)C12CCN(OC)CC2 [Compound P2.11] , what is its reported melting point?
## Output 218 to 221 °C

## Input For CON1CCC2(CC1)C(O)=C(c1cc(C)ccc1C)C(=O)N2C [Compound P2.1] , what is its reported melting point?
## Output 121 to 123 °C

## Input For "COCON1C(=O)C(c2c(C)cc(-c3ccc(Cl)cc3)cc2C)=C(O)C12CCN(OC)CC2" , what is its reported melting point?
## Output 128 °C (dec.)

## Input For "COCON1C(=O)C(c2cc(C)ccc2C)=C(OC(=O)CC(C)(C)C)C12CCN(OC)CC2" , what is its reported melting point?
## Output 93 to 95 °C

## Input For CON1CCC2(CC1)C(O)=C(c1cc(C)c(C)cc1Br)C(=O)N2C [Compound P2.23] , what is its reported melting point?
## Output 191 to 193 °C

## Input For CCOC(=O)OC1=C(c2c(C)cc(C)cc2C)C(=O)N(CC)C12CCN(OC)CC2 [Compound P1.8] , what is its reported melting point?
## Output 101 to 103 °C

## Input For CON1CCC2(CC1)C(O)=C(c1c(C)cc(C)cc1C)C(=O)N2OCCOC1CCCCO1 (stereo not shown) , what is its reported melting point?
## Output 135 to 137 °C

====

Property: melting point; scope: individual molecules

Here's what some known entries look like.
>>> measured_result("CCOC(=O)OC1=C(c2cc(C)c(C)cc2Br)C(=O)N(C)C12CCN(OC)CC2 [Compound P1.20]")
"158 to 159 °C"
>>> measured_result("CCOC(=O)OC1=C(c2c(F)ccc(C)c2Cl)C(=O)N(OCOC)C12CCN(OC)CC2 [Compound P1ii.61]")
"116 to 119 °C"

## Input For COCCON1C(=O)C(c2cc(Br)c(F)cc2C)=C(O)C12CCN(OC)CC2 [Compound P2ii.87] , what is its reported melting point?
## Output 71 to 74 °C
